System: myeloid leukemia patient primary cells Pat.11
Method Description: cell viability (% survival relative to DMSO control); higher = less cytotoxic
Condition: 100 nM; 72 h
# key: entry, value: cell viability
The figure you give is taken to be in %; do not add the unit.

Answered cases to consult:
{"Compound": "O=C1C(SCCO)=C(SCCO)C(=O)c2ccccc21", "cell viability (%)": 99.8}
{"Compound": "CN(Cc1cnc2nc(N)nc(N)c2n1)c1ccc(C(=O)N[C@@H](CCC(=O)O)C(=O)O)cc1 [Methotrexate]", "cell viability (%)": 97.3}
{"Compound": "C[C@]12C=CC(=O)C=C1CC[C@@H]1[C@@H]2[C@@H](O)C[C@@]2(C)[C@H]1CC[C@]2(O)C(=O)CO [Prednisolone]", "cell viability (%)": 85}
{"Compound": "O=C(O)CC[N+](=O)[O-] [3-nitropropionic acid]", "cell viability (%)": 97.5}

Reported cell viability, compound CO[C@H]1C[C@@H]2CC[C@@H](C)[C@@](O)(O2)C(=O)C(=O)N2CCCC[C@H]2C(=O)O[C@H]([C@H](C)C[C@@H]2CC[C@@H](OC(=O)C(C)(CO)CO)[C@H](OC)C2)CC(=O)[C@H](C)/C=C(\C)[C@@H](O)[C@@H](OC)C(=O)[C@H](C)C[C@H](C)/C=C/C=C/C=C/1C [Temsirolimus] : ____ 79.7

---

Test system: myeloid leukemia patient primary cells Pat.12
Method Description: area under dose-response curve (viability, 1 nM-10 uM) (fraction (0-1)); higher = more sensitive
Condition: 72 h
Property: area under dose-response curve
The answer should be a number; do not append a unit.

Reported area under dose-response curve, molecule `CC(C)(C)c1ccc(S(=O)(=O)NCc2ccc(C(=O)Nc3cccnc3)cc2)cc1` : ____ 0.366

Please do the same for `O=C1C(SCCO)=C(SCCO)C(=O)c2ccccc21` as well. 0.385

Please do the same for `O=C(/C=C/c1ccc(O)c(O)c1)OCCc1ccccc1` as well. 0.201

---

Tested on: KCL-22
Method Description: cell viability (% survival relative to DMSO control, bortezomib = 0%); higher = less cytotoxic
Condition: 10000 nM; 72 h
# key: entry, value: cell viability
The figure you give is taken to be in %; do not add the unit.

{"Compound": "CCn1c(=Cc2cccc[n+]2CC)sc(=C2Sc3ccccc3N2C)c1=O [MKT 077]", "System Name": "KCL-22", "Unit Of Measure": "%", "cell viability": 107}
{"Compound": "Cc1cccc(Nc2cc(Cl)nc(SCC(=O)O)n2)c1C [Pirinixic acid]", "System Name": "KCL-22", "Unit Of Measure": "%", "cell viability": 101}
{"Compound": "CO[C@H]1C[C@@H]2CC[C@@H](C)[C@@](O)(O2)C(=O)C(=O)N2CCCC[C@H]2C(=O)O[C@H]([C@H](C)C[C@@H]2CC[C@@H](OC(=O)C(C)(CO)CO)[C@H](OC)C2)CC(=O)[C@H](C)/C=C(\\C)[C@@H](O)[C@@H](OC)C(=O)[C@H](C)C[C@H](C)/C=C/C=C/C=C/1C [Temsirolimus]", "System Name": "KCL-22", "Unit Of Measure": "%", "cell viability": 23.6}
{"Compound": "CN(CCOc1ccc(Cc2sc(O)nc2O)cc1)c1ccccn1 [Rosiglitazone]", "System Name": "KCL-22", "Unit Of Measure": "%", "cell viability": 102}
{"Compound": "Cn1cc(-c2ccncc2)c(-c2ccc(OCc3ccc4ccccc4n3)cc2)n1", "System Name": "KCL-22", "Unit Of Measure": "%", "cell viability": 73.7}
{"Compound": "CN1CCN(CCCN2c3ccccc3Sc3ccc(C(F)(F)F)cc32)CC1 [Trifluoperazine]", "System Name": "KCL-22", "Unit Of Measure": "%", "cell viability": 42.1}
{"Compound": "N#Cc1ccc(N(Cc2ccc(Br)cc2)n2cnnc2)cc1 [YM511]", "System Name": "KCL-22", "Unit Of Measure": "%", "cell viability": 99.6}
{"Compound": "C=CCN(C)CCCCCCOc1ccc(C(=O)c2ccc(Br)cc2)c(F)c1.O=C(O)/C=C/C(=O)O [Ro 48-8071 fumarate]", "System Name": "KCL-22", "Unit Of Measure": "%", "cell viability": 77.5}

Reported cell viability, compound O=C(NCCN1CCC(n2c(O)nc3ccccc32)CC1)c1cc2cc(F)ccc2[nH]1 [FIPI] : ____ 67.7

Please do the same for Cc1cc(C(=O)NNCc2ccccc2)no1 [Isocarboxazid] as well. 65.6

Please do the same for `Cc1c2c(=O)n(-c3ccccc3Cl)[nH]c2cc(=O)n1Cc1ccccn1` as well. 106

Please do the same for `Cc1nc(-c2ccccc2)sc1C(=O)Nc1ccc(S(N)(=O)=O)cc1` as well. 102

Please do the same for Cc1cc2c(C(C)C)c(O)c(O)c(C=O)c2c(O)c1-c1c(C)cc2c(C(C)C)c(O)c(O)c(C=O)c2c1O [Gossypol] as well. 2.21

Please do the same for OC[C@H]1O[C@@H](n2cnc3c2N=CNC[C@H]3O)C[C@@H]1O [Pentostatin] as well. 105

Please do the same for CCN(CC)C(=S)SSC(=S)N(CC)CC [Disulfiram] as well. 62.7

---

# key: entry, value: area under dose-response curve
Test system: myeloid leukemia patient primary cells Pat.4
Method Description: area under dose-response curve (viability, 1 nM-10 uM) (fraction (0-1)); higher = more sensitive
Condition: 72 h
The answer should be a number; do not append a unit.

Answered cases to consult:
{"Molecule": "CC(C)(C)c1ccc(S(=O)(=O)NCc2ccc(C(=O)Nc3cccnc3)cc2)cc1", "System Name": "myeloid leukemia patient primary cells Pat.4", "Property": "area under dose-response curve", "Recorded Number": 0.567}
{"Molecule": "CO[C@H]1C[C@@H]2CC[C@@H](C)[C@@](O)(O2)C(=O)C(=O)N2CCCC[C@H]2C(=O)O[C@H]([C@H](C)C[C@@H]2CC[C@@H](OC(=O)C(C)(CO)CO)[C@H](OC)C2)CC(=O)[C@H](C)/C=C(\\C)[C@@H](O)[C@@H](OC)C(=O)[C@H](C)C[C@H](C)/C=C/C=C/C=C/1C", "System Name": "myeloid leukemia patient primary cells Pat.4", "Property": "area under dose-response curve", "Recorded Number": 0.206}
{"Molecule": "O=c1cc(N2CCOCC2)oc2c(-c3ccccc3)cccc12", "System Name": "myeloid leukemia patient primary cells Pat.4", "Property": "area under dose-response curve", "Recorded Number": 0.18}
{"Molecule": "C=CCN(C)CCCCCCOc1ccc(C(=O)c2ccc(Br)cc2)c(F)c1.O=C(O)/C=C/C(=O)O [Ro 48-8071 fumarate]", "System Name": "myeloid leukemia patient primary cells Pat.4", "Property": "area under dose-response curve", "Recorded Number": 0.0305}
{"Molecule": "c1cc(-c2cnn3cc(-c4ccc(OCCN5CCCCC5)cc4)cnc23)ccn1", "System Name": "myeloid leukemia patient primary cells Pat.4", "Property": "area under dose-response curve", "Recorded Number": 0.182}
{"Molecule": "CS(=O)(=O)N1CCN(Cc2cc3nc(-c4cccc5[nH]ncc45)nc(N4CCOCC4)c3s2)CC1", "System Name": "myeloid leukemia patient primary cells Pat.4", "Property": "area under dose-response curve", "Recorded Number": 0.294}

Reported area under dose-response curve, molecule `O=C(O)CC[N+](=O)[O-]` : ____ 0.113

---

System: KU-812
Method Description: cell viability (% survival relative to DMSO control, bortezomib = 0%); higher = less cytotoxic
Condition: 10000 nM; 72 h
Rule: cell viability below 90% gives Y, anything at or above gives N.

Worked cases, answers included:
{"Structure String": "CCc1oc2ccccc2c1C(=O)c1cc(Br)c(O)c(Br)c1", "Assigned Class": "N"}
{"Structure String": "COC(=O)c1cc2c(C(F)(F)F)cc(-c3ccccc3)cc2n1O", "Assigned Class": "Y"}
{"Structure String": "Cn1cc(-c2ccncc2)c(-c2ccc(OCc3ccc4ccccc4n3)cc2)n1", "Assigned Class": "Y"}
{"Structure String": "O=C(Nc1ccccc1)c1cc([N+](=O)[O-])ccc1Cl", "Assigned Class": "Y"}

Is 90% strictly greater than the compound's reported cell viability? compound: `Cc1cc2c(C(C)C)c(O)c(O)c(C=O)c2c(O)c1-c1c(C)cc2c(C(C)C)c(O)c(O)c(C=O)c2c1O` Y

Please do the same for `Cc1c(Cl)cccc1S(=O)(=O)Nc1nc(CC(=O)N2CCN(C)CC2)cs1` as well. Y

---

# key: entry, value: cell viability
Test system: HL-60
Method Description: cell viability (% survival relative to DMSO control); higher = less cytotoxic
Condition: 0.01 µM; 72 h; co-treatment: AZD3965 100 nM
Structures can show the parent of a compound that is named as a salt.
The figure you give is taken to be in %; do not add the unit.

{"Molecule": "Cc1[nH]nc(C(F)(F)F)c1Cc1sc2c(c1C(=O)N1C[C@](C)(O)CO1)c(=O)n(C)c(=O)n2C(C)C", "Unit Of Measure": "%", "cell viability": 98.1}
{"Molecule": "Cc1cccc(Nc2cc(Cl)nc(SCC(=O)O)n2)c1C", "Unit Of Measure": "%", "cell viability": 99}
{"Molecule": "O=C(NCCN1CCC(n2c(O)nc3ccccc32)CC1)c1cc2cc(F)ccc2[nH]1", "Unit Of Measure": "%", "cell viability": 99.7}
{"Molecule": "Cc1cc(CS(=O)(=O)c2ccccc2)cc(OCc2ccc(CN3CCC[C@@H]3CO)cc2)c1 [PF 543 hydrochloride]", "Unit Of Measure": "%", "cell viability": 101}
{"Molecule": "CCCCCOC(=O)Nc1nc(=O)n([C@@H]2O[C@H](C)[C@@H](O)[C@H]2O)cc1F", "Unit Of Measure": "%", "cell viability": 95.7}
{"Molecule": "C[C@]12C=CC(=O)C=C1CC[C@@H]1[C@@H]2[C@@H](O)C[C@@]2(C)[C@H]1CC[C@]2(O)C(=O)CO", "Unit Of Measure": "%", "cell viability": 96.7}

Please find the next molecule below.
Reported cell viability, molecule CCCCCCCC/C=C\CCCCCCCC(=O)Nc1ccccc1 [Octadec-9-Enoic Acid Phenylamide] : ____ 98.6
